Assay Procedure: Cmax in Sprague-Dawley rat at 5 mg/kg, iv
Format: ADME, organism-based
Design: dose 5 mg/kg, route intravenous
Stated Conditions: in vivo
Readout Label: Cmax (ng/mL)

> print(dat)
                                smiles.code   unit  observed.measurement
1  CC(C)c1nn(C)cc1-c1nc2c(N3CCN(Cc4cccnc4)CC3)c(Br)cnc2[nH]1  ng/mL                  1340

----------
Assay Procedure: Oral bioavailability in Sprague-Dawley rat at 5 mg/kg
Format: ADME, organism-based
Stated Conditions: in vivo
Readout Label: bioavailability (%)

> print(dat)
                                smiles.code  unit  observed.measurement
1  CC(C)c1nn(C)cc1-c1nc2c(N3CCN(Cc4cccnc4)CC3)c(Br)cnc2[nH]1     %                  6.07

----------
Test Target: Non-receptor tyrosine-protein kinase TYK2 (Homo sapiens)
Sequence (P29597 whole entry): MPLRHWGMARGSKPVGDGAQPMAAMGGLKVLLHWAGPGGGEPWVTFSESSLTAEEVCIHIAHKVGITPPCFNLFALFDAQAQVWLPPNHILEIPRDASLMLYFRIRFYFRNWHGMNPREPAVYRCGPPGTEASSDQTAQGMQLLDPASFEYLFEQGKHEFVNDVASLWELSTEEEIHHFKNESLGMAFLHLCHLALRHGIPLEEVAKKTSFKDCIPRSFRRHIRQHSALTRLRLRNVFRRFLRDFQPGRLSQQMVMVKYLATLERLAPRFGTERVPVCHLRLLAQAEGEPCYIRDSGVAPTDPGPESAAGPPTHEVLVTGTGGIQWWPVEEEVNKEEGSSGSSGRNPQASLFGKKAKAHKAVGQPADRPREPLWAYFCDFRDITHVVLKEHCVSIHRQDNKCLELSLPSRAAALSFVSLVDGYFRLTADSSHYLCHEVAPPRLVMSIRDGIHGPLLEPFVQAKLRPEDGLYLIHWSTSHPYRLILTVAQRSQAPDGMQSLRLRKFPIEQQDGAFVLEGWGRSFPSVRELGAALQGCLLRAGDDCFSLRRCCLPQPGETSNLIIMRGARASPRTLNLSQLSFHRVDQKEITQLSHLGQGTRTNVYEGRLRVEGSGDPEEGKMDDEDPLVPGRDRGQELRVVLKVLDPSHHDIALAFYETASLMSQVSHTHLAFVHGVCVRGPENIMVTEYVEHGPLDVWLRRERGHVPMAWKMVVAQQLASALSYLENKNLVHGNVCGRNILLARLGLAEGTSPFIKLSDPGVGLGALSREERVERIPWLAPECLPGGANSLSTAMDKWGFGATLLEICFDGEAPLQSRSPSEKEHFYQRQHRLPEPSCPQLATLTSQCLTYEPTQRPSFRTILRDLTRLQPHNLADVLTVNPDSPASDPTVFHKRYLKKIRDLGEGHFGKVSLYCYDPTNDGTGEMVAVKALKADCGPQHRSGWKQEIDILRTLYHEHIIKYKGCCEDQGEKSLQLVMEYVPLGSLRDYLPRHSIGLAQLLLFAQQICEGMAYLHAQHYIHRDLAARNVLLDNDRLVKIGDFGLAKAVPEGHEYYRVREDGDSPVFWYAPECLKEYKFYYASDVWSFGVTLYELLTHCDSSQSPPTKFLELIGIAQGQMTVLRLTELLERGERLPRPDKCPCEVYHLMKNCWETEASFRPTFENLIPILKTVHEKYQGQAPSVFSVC
Assay Procedure: Inhibition of Tyk2 (unknown origin) at 10 uM
Readout Label: inhibition (%)

> print(dat)
                                smiles.code  bound.sign  observed.measurement
1  CC(C)c1nn(C)cc1-c1nc2c(N3CCN(Cc4cccnc4)CC3)c(Br)cnc2[nH]1           =                    99
2  CC(C)c1nn(-c2ccccc2)cc1-c1nc2cc(Br)cnc2[nH]1           =                    38
3      CC(C)c1n[nH]cc1-c1nc2cc(Br)cnc2[nH]1           <                    30
4      CC(C)c1nn(C)cc1-c1nc2cc(Br)cnc2[nH]1           =                    83

----------
Assay Procedure: Mean residence time in Sprague-Dawley rat at 5 mg/kg, po
Format: ADME, organism-based
Stated Conditions: in vivo
Readout Label: MRT (h)

> print(dat)
                                smiles.code  unit  observed.measurement
1  CC(C)c1nn(C)cc1-c1nc2c(N3CCN(Cc4cccnc4)CC3)c(Br)cnc2[nH]1     h                   1.7

----------
Assay Procedure: Mean residence time in Sprague-Dawley rat at 5 mg/kg, iv
Assay type: ADME, organism-based
Stated Conditions: in vivo
Readout Label: MRT (min)

> print(dat)
                                smiles.code  readout.label  observed.measurement
1  CC(C)c1nn(C)cc1-c1nc2c(N3CCN(Cc4cccnc4)CC3)c(Br)cnc2[nH]1            MRT                  47.4

----------
Assay Procedure: Tmax in Sprague-Dawley rat at 5 mg/kg, po
Assay type: ADME, organism-based
Stated Conditions: in vivo
Readout Label: Tmax (min)

> print(dat)
                                smiles.code  unit  observed.measurement
1  CC(C)c1nn(C)cc1-c1nc2c(N3CCN(Cc4cccnc4)CC3)c(Br)cnc2[nH]1   min                  19.8

----------
Assay Procedure: Tmax in Sprague-Dawley rat at 5 mg/kg, iv
Format: ADME, organism-based
Stated Conditions: in vivo
Readout Label: Tmax (min)

> print(dat)
                                smiles.code  readout.label  observed.measurement
1  CC(C)c1nn(C)cc1-c1nc2c(N3CCN(Cc4cccnc4)CC3)c(Br)cnc2[nH]1           Tmax                   4.8

Each recorded value in this set is attributed to ChEMBL document CHEMBL3612014.
